src = PubChem BioAssay

test: TLR3 IRF3 reporter activation blockers – cell-based, poly I:C stimulus, luciferase, 10K MLSCN set, primary screen (AID 602277); conditions: HEK293-TLR3 RL24 IRF3 luciferase reporter, at 10 µM, hits give high values
Active and inactive are the calls of the source.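 Rule for the calls: active = inhibition of the reporter signal at or above 50%; inactive = inhibition below 50%.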

- compound: "CC1CCN(C(=O)C2CCN(S(=O)(=O)c3cnc[nH]3)CC2)CC1"
  inhibition: "19.2% (inactive)"
- compound: "Cc1cc(C)c2oc(=O)cc(CN3CCOCC3)c2c1"
  inhibition: "25.5% (inactive)"
- compound: "CCCN1C2=C(C(=O)CCC2)C(c2ccc(O)c(Br)c2)C2=C1CCCC2=O"
  inhibition: "17.2% (inactive)"
- compound: "COc1ccc(CC(=O)NCc2ccccc2)cc1S(=O)(=O)N1CCOCC1"
  inhibition: "21.9% (inactive)"
- compound: "CCOC(=O)CCCn1nc(C)n2c(cc3sccc32)c1=O"
  inhibition: "-28.8% (inactive)"
- compound: "O=C(c1ccc(Cl)c(Cl)c1)N1CCOCC1"
  inhibition: "3.54% (inactive)"
- compound: "CC(C)(C)n1nnnc1C(c1cccc(C#N)c1)N1CCC(Cc2ccccc2)CC1 (stereo not drawn)"
  inhibition: "36.8% (inactive)"
- compound: "COC(=O)c1ccc(CSc2nc3ccccc3c(=O)n2Cc2ccco2)o1"
  inhibition: "-5.19% (inactive)"
- compound: "C=CCN1C(=O)/C(=C2\\SC(N3CCOCC3)=NC2=O)c2cc(Br)ccc21"
  inhibition: "-37.3% (inactive)"
- compound: "CCOc1ccc(S(=O)(=O)Nc2ccccc2C(=O)Nc2ccccc2N2CCOCC2)cc1"
  inhibition: "25.7% (inactive)"
- compound: "O=C(COn1nnc2ccc(C(F)(F)F)cc21)Nc1nnc(-c2ccccc2)o1"
  inhibition: "10.1% (inactive)"
- compound: "CCOc1ccc(N(CC(=O)NCC2CCCO2)S(=O)(=O)c2ccc(OC)c(OC)c2)cc1 (stereo not drawn)"
  inhibition: "18.4% (inactive)"
- compound: "CCOC(=O)c1sc(N2C(=O)C(O)=C(C(=O)c3ccco3)C2c2ccccc2)nc1C (stereo not drawn)"
  inhibition: "-6.96% (inactive)"
- compound: "COC(=O)COc1ccc(S(=O)(=O)NCCC2=CCCCC2)cc1"
  inhibition: "20.7% (inactive)"
- compound: "COc1ccc(N2CCN(C(=O)CSc3nnc4n3C(C)(C)Cc3ccccc3-4)CC2)cc1"
  inhibition: "-6.84% (inactive)"
- compound: "CC(=O)Nc1c(Cl)n(C(C)=O)c2ccccc12"
  inhibition: "21% (inactive)"
- compound: "CCOC(=O)NC(c1ccccc1)C1CCCCC1=O (stereo not drawn)"
  inhibition: "18.4% (inactive)"
- compound: "COC(=O)CN(c1ccc2c(c1)OCO2)S(C)(=O)=O"
  inhibition: "8.67% (inactive)"
- compound: "CN(C)CCCN1c2ccccc2Sc2ccccc21"
  inhibition: "34.6% (inactive)"
- compound: "CC(=O)CC(=O)Nc1ccccc1NC(C)=O"
  inhibition: "15% (inactive)"
- compound: "O=C(c1ccccc1)c1coc2ccc(O)c(CN3CCOCC3)c12"
  inhibition: "18.2% (inactive)"
- compound: "Cc1cccc(NC(=O)CCn2ccnc2C)c1"
  inhibition: "8.13% (inactive)"
- compound: "CCn1c(SCC(=O)c2ccc3c(c2)OCCO3)nnc1-c1ccco1"
  inhibition: "0.911% (inactive)"
